// provenance: PubChem BioAssay (NCI)

System: HT29 colon
Experiment: NCI tumour cell line growth inhibition, 48 h
Where a SMILES comes first, the peptide text is derived from it. The star is where a group is joined. Cbz = O=C(OCc1ccccc1)*
Listed molecules paired with reported TGI

Answered cases to consult:
{"MOLECULE": "Cc1ccc(/C(O)=C/c2nc3ccccc3[nH]c2=O)c(C)c1", "MEASURED_PROPERTY": "TGI", "ASSAY_VALUE": "> 86.3 µM"}
{"MOLECULE": "Cc1csc2nc3[nH]ncc3c(=O)n12", "MEASURED_PROPERTY": "TGI", "ASSAY_VALUE": "> 100 µM"}
{"MOLECULE": "OC(C/C(=N\\N=C(/CC(O)(C(F)(F)F)C(F)(F)F)c1ccccc1)c1ccccc1)(C(F)(F)F)C(F)(F)F", "MEASURED_PROPERTY": "TGI", "ASSAY_VALUE": "> 10 µM"}
{"MOLECULE": "COc1cc(C2c3cc4c(cc3OC(NCc3ccccc3)C2C)OCO4)cc(OC)c1OC (stereo not given)", "MEASURED_PROPERTY": "TGI", "ASSAY_VALUE": "3.32 µM"}
{"MOLECULE": "O=C(N/N=C\\c1ccc(N(CCCl)CCCl)cc1Cl)c1cccnc1", "MEASURED_PROPERTY": "TGI", "ASSAY_VALUE": "> 88.4 µM"}

input: Look up TGI with HT29 colon for this molecule: C=C(C)[C@H](O)C(O)CC(C)[C@@H]1CCC23CC12CCC1[C@@]2(C)CCC(OC(C)=O)C(C)(C)C2CC(OC2OC(COC(C)=O)C(O)C(O)C2O)[C@]13C (stereo not given in full)
output: 8.77 µM

input: Lab request: please report TGI under test system HT29 colon for `COC(=O)/C=C(/C(=O)OC)c1c(C)cc2c(C)cc(C)cc(C)c1-2`
output: 28.3 µM

input: Tell me reported TGI for CCOC(=O)C(CC(=O)OC)NC(=O)C(CC(=O)OC)NC(=O)C(CC(=O)OC)NC(=O)C(CC(=O)OC)NC(=O)OCc1ccccc1 (stereo not given) (Cbz-D(OMe)D(OMe)D(OMe)D(OMe)-OEt; configuration not given here) , tested with HT29 colon.
output: > 100 µM

input: Missing value: TGI, HT29 colon, entry `CCOC(=O)C#Cc1c(CC(=O)OCC)nnn1[C@H]1O[C@@H](CO)[C@@H]2OC(C)(C)O[C@@H]21` . Fill in?
output: 4.3 µM

input: Request - read-out TGI | tested on HT29 colon | molecule Cc1nn(-c2nc3ccccc3[nH]2)c2c1C(c1ccc3c(c1)OCO3)CC(=O)N2 (stereo not given)
output: > 23.6 µM

----------
Test system: HOP-18 NSCLC
Experiment: NCI tumour cell line growth inhibition, 48 h
MEASURED_PROPERTY: TGI

Completed entries (count: 6):
{"COMPOUND": "Clc1ccc(SCCCCCCCCCCSc2ccc(Cl)cc2)cc1", "ASSAY_VALUE": "> 100 µM"}
{"COMPOUND": "FC(F)(F)C1(C(F)(F)F)O[SiH]2(OC(C(F)(F)F)(C(F)(F)F)c3ccccc32)c2ccccc21", "ASSAY_VALUE": "75.1 µM"}
{"COMPOUND": "CCN(CC)c1cccc2c1C1(O)CCC3(CC21)OCCCCO3 (centres undefined)", "ASSAY_VALUE": "> 100 µM"}
{"COMPOUND": "COC(=O)C(CC(=O)Nc1ccc(Cl)c(Cl)c1)C(=O)C(=O)NC1C2CC3CC(C2)CC1C3 (centres undefined)", "ASSAY_VALUE": "> 100 µM"}
{"COMPOUND": "CC[C@](C)(O)C(=O)O[C@H]1C(=O)O[C@@H]2C[C@H]3C(C)=C[C@H](O)[C@@H](O)[C@]3(C)[C@H]3[C@@]4(O)OC[C@]32[C@@H]1[C@@H](C)[C@H]4O", "ASSAY_VALUE": "298 µM"}
{"COMPOUND": "COc1cc(/C=C2/C(=O)NC(Cc3cc(OC)c(OC)c(C)c3OC)C(=O)N2Cc2ccccc2)c(OC)c(C)c1OC (centres undefined)", "ASSAY_VALUE": "80.4 µM"}

input: Lab request: please report TGI under test system HOP-18 NSCLC for C=C(C)[C@H](O)C(O)CC(C)[C@@H]1CCC23CC12CCC1[C@@]2(C)CCC(OC(C)=O)C(C)(C)C2CC(OC2OC(COC(C)=O)C(O)C(O)C2O)[C@]13C (some centres undefined)
output: 15.2 µM
